Tested on: SR leukemia
Assay: NCI tumour cell line growth inhibition, 48 h; in the data active = GI50 below about 0.43 µM; inactive = the rest
Return exactly one item of True (active), False (inactive)

Called result for `CN1CCN(Cc2ccc(-c3cc4ncnc(Nc5ccc(OCc6cccc(F)c6)c(Cl)c5)c4s3)o2)CC1`
False

Called result for `OCCN(CCO)N=Nc1ccc(-c2nc3ccccc3[nH]2)cc1`
False

###

Kindly supply the reported TGI values for the records listed here.
Tested on: HS 578T breast
Test: NCI tumour cell line growth inhibition, 48 h
Give bare numbers, in µM.

CN(C)CCCNc1c(O)c2c(c(O)c1Cl)C(=O)C=CC2=O    3.65

Please examine the following record next.
The molecule `O=C1c2ccccc2-c2c1c1ccccc1c(=O)n2CCCNCCCn1c2c(c3ccccc3c1=O)C(=O)c1ccccc1-2` , tested on HS 578T breast, showed TGI of 32.9
